Reported GI50 values for the following molecules.
# Tested on: HCC827 (EGFR DelE746_A750)
# experiment.summary: Inhibition test for growth of cancer cell expressing EGFR (SRB), HCC827;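 note: cells in 96-well plates exposed to tenfold serial dilutions from 100 µM, fixed with trichloroacetic acid, SRB-stained, absorbance read at 540 nm, DMSO under 1%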
# Format: cell-based
# setup.conditions: Homo sapiens, HCC827, 72 h, HCC827 cells, 72 hours, SRB; read-out: GI50 HCC827 EGFR DelE746_A750
quantity: GI50

[[record]]
structure_smiles = "C=CC(=O)Nc1cccc(Oc2nc(Nc3ccc4c(ccn4C)c3)nc3ccsc23)c1"
measurement = "50 to 100 nM"

[[record]]
structure_smiles = "C=CC(=O)Nc1cccc(Oc2nc(Nc3ccc(C(=O)OCCCN(C)C)cc3)nc3ccsc23)c1"
measurement = "50 to 100 nM"

[[record]]
structure_smiles = "C=CC(=O)Nc1cccc(Nc2nc(Nc3ccc(N4CCN(C(C)C)CC4)cc3)nc3ccsc23)c1"
measurement = "< 50 nM"

[[record]]
structure_smiles = "C=CC(=O)Nc1cccc(Oc2nc(Nc3ccc(OCCOC)cc3)nc3ccsc23)c1"
measurement = "50 to 100 nM"

[[record]]
structure_smiles = "C=CC(=O)Nc1cccc(Oc2nc(Nc3ccc(N4CCC(N5CCCCC5)CC4)c(F)c3)nc3ccsc23)c1"
measurement = "< 50 nM"

[[record]]
structure_smiles = "C=CC(=O)Nc1cccc(Oc2nc(Nc3ccc(N4CCC(C(=O)N(C)C)CC4)cc3)nc3ccsc23)c1"
measurement = "< 50 nM"

[[record]]
structure_smiles = "C=CC(=O)Nc1cccc(Oc2nc(Nc3ccc(N4CCN(C)CC4)c(F)c3)nc3ccsc23)c1"
measurement = "< 50 nM"

[[record]]
structure_smiles = "C=CC(=O)Nc1cccc(Oc2nc(Nc3ccc(N4CCN(C5CCN(C)CC5)CC4)cc3)nc3ccsc23)c1"
measurement = "< 50 nM"


----------
# measured.on: JAK3 (Homo sapiens)
# Sequence (P52333 1-1124): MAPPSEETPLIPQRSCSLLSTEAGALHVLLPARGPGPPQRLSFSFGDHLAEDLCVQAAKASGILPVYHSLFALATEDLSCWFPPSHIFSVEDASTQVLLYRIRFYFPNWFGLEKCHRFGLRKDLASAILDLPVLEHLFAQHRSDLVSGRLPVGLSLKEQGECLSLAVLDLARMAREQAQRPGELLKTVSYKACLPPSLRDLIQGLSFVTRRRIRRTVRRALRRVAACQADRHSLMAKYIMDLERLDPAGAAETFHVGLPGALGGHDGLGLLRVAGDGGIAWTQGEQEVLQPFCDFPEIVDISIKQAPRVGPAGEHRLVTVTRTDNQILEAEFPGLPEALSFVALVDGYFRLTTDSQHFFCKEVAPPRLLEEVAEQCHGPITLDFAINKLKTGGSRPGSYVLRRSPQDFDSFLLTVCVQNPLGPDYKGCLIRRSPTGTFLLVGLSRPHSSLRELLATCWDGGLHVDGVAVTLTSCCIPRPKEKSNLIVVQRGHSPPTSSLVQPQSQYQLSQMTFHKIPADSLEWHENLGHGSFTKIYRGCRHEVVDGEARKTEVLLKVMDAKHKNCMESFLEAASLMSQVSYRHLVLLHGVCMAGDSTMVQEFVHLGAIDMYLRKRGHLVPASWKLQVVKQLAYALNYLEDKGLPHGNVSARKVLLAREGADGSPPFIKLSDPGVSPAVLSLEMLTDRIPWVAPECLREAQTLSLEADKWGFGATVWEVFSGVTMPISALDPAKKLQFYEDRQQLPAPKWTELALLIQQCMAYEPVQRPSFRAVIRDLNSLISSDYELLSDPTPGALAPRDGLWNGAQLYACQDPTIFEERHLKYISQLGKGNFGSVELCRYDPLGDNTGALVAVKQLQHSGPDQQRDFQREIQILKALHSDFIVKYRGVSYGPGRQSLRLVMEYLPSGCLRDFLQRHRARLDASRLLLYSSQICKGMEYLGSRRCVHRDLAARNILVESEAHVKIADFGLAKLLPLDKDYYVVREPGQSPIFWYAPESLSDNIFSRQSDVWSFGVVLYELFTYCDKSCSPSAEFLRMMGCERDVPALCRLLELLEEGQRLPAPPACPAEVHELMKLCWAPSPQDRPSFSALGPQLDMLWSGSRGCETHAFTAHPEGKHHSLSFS
pIC50: −log10 of the molar value.
quantity: pIC50

[[record]]
structure_smiles = "C=CC(=O)Nc1cccc(Oc2nc(Nc3ccc(N4CC[C@@H](n5ccnc5)C4)cc3)nc3ccsc23)c1"
measurement = "7.00 to 7.30"

[[record]]
structure_smiles = "C=CC(=O)Nc1cccc(Oc2nc(Nc3ccc(CN4CCC(N(C)C)CC4)cc3)nc3ccoc23)c1"
measurement = "≥ 7.30"

[[record]]
structure_smiles = "C=CC(=O)Nc1cccc(Oc2nc(Nc3ccc(CN4CCC(N(C)C)CC4)cc3)nc3ccsc23)c1"
measurement = "≥ 7.30"

[[record]]
structure_smiles = "C=CC(=O)Nc1cccc(Oc2nc(Nc3ccc(C(=O)N4CCN(C5CCN(C)CC5)CC4)cc3)nc3ccsc23)c1"
measurement = "7.00 to 7.30"

[[record]]
structure_smiles = "C=CC(=O)Nc1cccc(Oc2nc(Nc3ccc(N4CCN(C)CC4)cc3)nc3ccoc23)c1"
measurement = "≥ 7.30"

[[record]]
structure_smiles = "C=CC(=O)Nc1cccc(Oc2nc(Nc3ccc(N4CCN(C(=O)CN(C)C)CC4)cc3)nc3ccsc23)c1"
measurement = "7.00 to 7.30"

